- Test system: HT-29
- Assay details: NCI tumour cell line growth inhibition, 48 h
Activity calls are given as the source filed them. Cut-off read from the data, not from the text of the source: active = GI50 up to about 1.1 µM and inactive = higher.
Assay readout: GI50

[ask] // query GI50 value for entry O=C(O)c1cc2ccccc2c(O)c1O
[reply] 23.2 µM (inactive)

[ask] Please look up its GI50: CSc1nc2ccccc2c(=O)n1/N=C1\C(=O)N(CN2CCOCC2)c2ccc(Cl)cc21
[reply] 23.7 µM (inactive)

[ask] Sample CC(C)(O)CO/N=C1\C(=C2\C(=O)Nc3ccccc32)Nc2ccccc21 — what was its GI50?
[reply] 1.75 µM (inactive)

[ask] GI50 lookup needed for COC(=O)/C=C(/C=C1/C(C#N)=C(N)N(c2ccc(Cl)cc2)C1(C)/C(=C/C(=O)OC)C(=O)OC)C(=O)OC (stereo not given) , thanks.
[reply] 33.4 µM (inactive)

[ask] For CC12CCCC(O)C1CCC1=CC3(CCC12)SCCS3 (stereo not given) , what is its reported GI50?
[reply] > 10 µM (inactive)

[ask] Any idea what its GI50 is? The compound is Cc1nc(O)c(O)c(CN2CCCCC2)n1
[reply] > 100 µM (inactive)

[ask] Given the compound COC(=O)[C@@H]1[C@H]2CC[C@]3(C)[C@@H](OC(C)=O)CC[C@H]3[C@@H]2CC[C@H]1C1(C)SCCS1 , what is its reported GI50?
[reply] 15 µM (inactive)

[ask] What value of GI50 has been reported for the following compound? C=C[C@@]1(C)CC[C@@H]2[C@@]3(C1)O[C@H]3CC1[C@](C)(C(=O)OC)CCC[C@@]12C (stereo not given in full)
[reply] 14.1 µM (inactive)

[ask] Give the measured GI50 of Nc1ccc(-c2nc3ccccc3s2)cc1F .
[reply] 29.2 µM (inactive)

[ask] # get_value(readout='GI50', item= CCOC(=O)C(C)(c1c(C)[nH]c2ccccc12)c1c(C)[nH]c2ccccc12 )
[reply] 16.7 µM (inactive)
